procedure_text: Emulsion stability testing of nonionic emulsifiers, aromatic solvent series
Format: physicochemical
Set-up: key: C = creamy; CO = creamy oil; O = oil; GC = gritty cream; NS = no separation; OC = oily cream
assay_conditions: Bifenthrin 240 g/L in Aromatic 100, 34 ppm water
Description: Nonionic samples contain a low amount of water (<1%) and are prepared as emulsifiable concentrates with three pesticides using two different solvent systems. In the aromatic solvent series, the nonionic sample replaces Toximul® 8240 (castor oil ethoxylate, 36 POE, Stepan), and in the Hallcomid™ (N,N-dimethylcaprylamide/N,N-dimethylcapramide, Stepan) solvent series, the nonionic sample replaces Ninex® MT-630F. […]
recorded_metric: 1 h separation, appearance

The examples below pair each entry with its known result.
- compound: "C=CCCCCCCCCOCCO [A10-4]"
  recorded_metric: "1 h separation, appearance"
  assay_result: "CO"
- compound: "CCC=CCCCCCCCCOCCOCCOCCOCCOCCO (mixture of isomers) [A12-10]"
  recorded_metric: "1 h separation, appearance"
  assay_result: "C"
- compound: "C=CCCCCCCCCOCCOCCOCCO [A10-7]"
  recorded_metric: "1 h separation, appearance"
  assay_result: "CO"
- compound: "CCC=CCCCCCCCCOCCOCCOCCOCCOCCOCCOCCOCCOCCOCCOCCOCCOCCOCCOCCO (mixture of isomers) [A12-16]"
  recorded_metric: "1 h separation, appearance"
  assay_result: "C"
- compound: "CCC=CCCCCCCCCOCCOCCOCCO (mixture of isomers) [A12-7]"
  recorded_metric: "1 h separation, appearance"
  assay_result: "C"
- compound: "CCC=CCCCCCCCCOCCOCCOCCOCCOCCOCCOCCO (mixture of isomers) [A12-13]"
  recorded_metric: "1 h separation, appearance"
  assay_result: "C"

## Input What value of 1 h separation, appearance has been recorded for this entry: CCC=CCCCCCCCCOCCO (mixture of isomers) [A12-4]
## Output C

## Input Same lookup for C=CCCCCCCCCOCCOCCOCCOCCOCCOCCOCCOCCOCCOCCOCCOCCOCCOCCOCCO [A10-16] , please.
## Output C

## Input Same lookup for C=CCCCCCCCCOCCOCCOCCOCCOCCOCCOCCO [A10-13] , please.
## Output C
